src = ChEMBL document CHEMBL1177786

Tested on: Calf thymus DNA
Test: Binding affinity to calf thymus DNA assessed as change in melting temperature at drug/DNA ratio 0.2 at pH 7.4
Assay type: nucleic-acid assay
Details: Bos taurus
recorded metric: ΔTm (°C)

Sample records with ΔTm:
>  <compound smiles>
CCN(CC)CCCNCc1cc2c3ccccc3n(CCCc3ccccc3)c2cn1

>  <experimental system>
Calf thymus DNA

>  <ΔTm [°C]>
18.8

$$$$
>  <compound smiles>
CCN(CC)CCCNCc1cc2c3ccccc3n(Cc3ccccc3)c2cn1

>  <experimental system>
Calf thymus DNA

>  <ΔTm [°C]>
15.6

$$$$
>  <compound smiles>
CCN(CC)CCCNCc1cc2c3ccccc3n(C)c2cn1

>  <experimental system>
Calf thymus DNA

>  <ΔTm [°C]>
24.5

$$$$

1: CCCCn1c2ccccc2c2cc(CNCCCN(CC)CC)ncc21
2: CCN(CC)CCCNCc1cc2c(cn1)[nH]c1ccccc12
Between 1 and 2 , which one has the lower reported ΔTm value? Kindly state the label of the option you pick.
2
(2: 12.6 °C, 1: 20.6 °C)
